- Test system: IGROV-1
- method: NCI tumour cell line growth inhibition, 48 h
The source made the active and inactive calls. No stated cut-off is given here; in the data, active = GI50 up to about 1.1 µM and inactive = higher.
Classes used: active, inactive

1. O=C(/C=C/c1ccc(OCc2cccc(Cl)c2)cc1)NO = inactive
2. CCc1cccc(C)c1N1C(=O)C(=O)C(c2nc3ccccc3o2)C(=O)C1=O = inactive
3. CCCc1c(O)c(=O)c2c(OC)cc(OC)c3c4c(OC)cc(OC)c5c(=O)c(O)c(CCC)c(c1c23)c54 = active
4. Cc1cccc(C(C)C)c1N1C(=O)C(=O)C(c2nc3ccccc3o2)C(=O)C1=O = inactive
5. CC(=O)c1ccc(NC(=O)COC(=O)c2cccc3c(=O)c4ccccc4[nH]c23)cc1 = inactive
6. COC(=O)C(Cc1nc2ccc(Cl)cc2nc1O)/C(=N/NC(N)=O)C(=O)Nc1ccc(Cl)cc1 (stereo not given) = inactive
7. C[N+]1(C)C/C(=C\C=C\c2ccccc2)C(=O)/C(=C/C=C/c2ccccc2)C1 = inactive
8. C[Si](C)(C)C#Cc1cc(-c2nc3ccccc3s2)ccc1N = active
9. O=C(O)C1(C(O)c2ccccc2)SCCCS1 (stereo not given) = inactive
10. COP(=O)(OC)c1ccc(NCc2cc(O)ccc2O)cc1 = inactive

---

- Test system: TK-10
- method: NCI tumour cell line growth inhibition, 48 h
Activity calls are given as the source filed them. Rule as the data show it: active = GI50 up to about 1.1 µM and inactive = higher.
recorded endpoint: GI50

1. CSC1=N/C(=C\c2ccco2)C(=O)N1CN1CCCCC1 = > 100 µM (inactive)
2. O=C1N/C(=N\N=C\c2ccccc2)C2(CCCCC2)O1 = 74.6 µM (inactive)
3. Clc1sc(Cl)c2c1[C@@H](Cl)C[C@@H]2Br = > 100 µM (inactive)
4. COc1ccc(C2C(C#N)=C(S)N(C3OC(CO)C(O)C(O)C3O)C(c3ccccc3)=C2C(C)=O)cc1 (stereo unspecified) = > 100 µM (inactive)
5. O=c1c(-c2ccc(O)cc2)coc2cc(O)cc(O)c12 = > 100 µM (inactive)
6. CCOC(=O)/C=C(\C(=O)OCC)n1ccc(N)nc1=O = > 100 µM (inactive)
7. CC(=O)O[C@H]1CC[C@@]2(C)C(=CC[C@@H]3[C@@H]2CC[C@](C)(c2nnc(C)o2)[C@H]3CC#N)C1 = > 100 µM (inactive)
8. CC(C)N(CC(=O)O)CC(=O)O = > 100 µM (inactive)
9. Nc1ccc2ncc(Nc3ccc(Cl)c(Cl)c3)nc2c1 = 70.6 µM (inactive)
10. Oc1ccc(-c2cc(-c3c(O)cc(O)cc3O)on2)cc1 = 55.1 µM (inactive)
11. CSc1c(C#N)c(N)n(-c2ccc(Cl)cc2)c(=O)c1C#N = > 100 µM (inactive)

---

- Tested on: COLO 205
- method: NCI tumour cell line growth inhibition, 48 h
Activity calls are given as the source filed them. No stated cut-off is given here; in the data, active = GI50 up to about 1.1 µM and inactive = higher.
Outcomes: yes for active, no for inactive

1. NC(=O)CO/N=C1/C(=C2/C(=O)Nc3ccccc32)Nc2ccccc21 = no
2. N=C(N)N/N=C/c1c(Cl)nc2sccn12 = no
3. COC(=O)[C@H](Cc1ccccc1)NC(=O)N1CCCN(C(=O)N[C@@H](Cc2ccccc2)C(=O)OC)CCCN(C(=O)N[C@@H](Cc2ccccc2)C(=O)OC)CCC1 = no
4. COc1ccc([C@H]2C=C(c3cc(F)c(Cl)cc3Cl)NC(=S)N2)cc1 = no
5. Sc1nnc(SCc2ccccc2Cl)c2nc[nH]c12 = no
6. CC(C)N(CC(=O)O)CC(=O)O = no
7. CCCCCCCCC(O)c1ccc(/C=C\C(O)CCCC(=O)O)s1 (stereo not given) = no
8. COC(=O)C1CC2C=CC=CC(=O)C2(C)C1 (stereo not given) = no
9. CC1/C=C/C=C/CC/C=C/C=C/C=C/C=C/C(OC2OC(C)C(O)C(N)C2O)CC2OC(CC(O)C(O)CCC(O)CC(O)CC(O)CC(=O)OC(C)C(C)C1O)CC(O)C2C(=O)O (stereo not given) = no
10. Cn1c(-c2ccc[se]2)ccc1-c1ccc(CO)[se]1 = yes
11. CCOC(OCC)N1C(=O)C2(C(OCC)OCC)CC3C(OC(=O)N3N)c3cccc1c32 (stereo not given) = no
12. CC(=O)OCC1OC(n2c(N)c(C#N)c(-c3cccc(Cl)c3)c(C#N)c2=S)C(OC(C)=O)C(OC(C)=O)C1OC(C)=O (stereo not given) = no
13. CCOC(=O)Cn1c(=O)n(C)c(=O)c2[nH]cnc21 = no
14. Cc1cccc(C)c1N1C(=O)C(=O)C(c2nc3ccccc3s2)/C(=N/NC(=O)NN)C1=O (stereo not given) = no
15. O=[N+]([O-])C1C2C=CC(C2)[C@H]1c1ccccc1Cl (stereo not given in full) = no
16. CC(=O)c1ccc(NC(=O)COC(=O)c2cccc3c(=O)c4ccccc4[nH]c23)cc1 = no
17. Cc1nn(-c2ccccc2)c(C)c1/C=N/N=C1\S/C(=C\c2ccc(Cl)cc2)C(=O)N1c1ccccc1 = no
18. C=C=C[P+](c1ccccc1)(c1ccccc1)c1ccccc1 = no
19. O=[N+]([O-])c1ccc(-c2nc3cc([N+](=O)[O-])ccc3[nH]2)cc1 = no
20. CCOC(=O)CCSS(=O)(=O)C(F)(F)F = no

Hello, the source for this data is ChEMBL document CHEMBL1201862, in case you need it.
